The following molecules are listed with their measured pIC50 values.
# STUDY_SYSTEM: KRAS (G12D)::SOS1 protein-protein interaction (Homo sapiens (Human), UniProt P01116, G12D)
# Sequence (P01116 other isoform, or with tags, fused parts or gaps G12D): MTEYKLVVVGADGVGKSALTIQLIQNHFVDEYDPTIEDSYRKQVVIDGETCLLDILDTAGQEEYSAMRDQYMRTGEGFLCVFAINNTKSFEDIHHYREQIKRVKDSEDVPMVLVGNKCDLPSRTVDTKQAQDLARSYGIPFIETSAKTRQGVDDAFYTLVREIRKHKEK
# ASSAY_COMMENT: KRAS::SOS1 AlphaScreen binding assay (KRAS G12D)
# TEST_CONDITIONS: GDP
pIC50 here: minus log base 10 of the concentration, concentration in moles per litre.

Example results:
C[C@H](Oc1nc(-c2onc3c2CCC[C@@]32CCCc3sc(N)c(C#N)c32)nc2c1CN(C1COC1)C[C@]21CCOC1)[C@@H]1CCCN1C : 9.00
Cc1cn([C@@H]2CCOC2)c2nc(-c3onc4c3CCC[C@@]43CCCc4sc(N)c(C#N)c43)nc(O[C@@H](C)[C@@H]3CCCN3C)c12 : 8.52

Consider now this further molecule.
Lab book: pIC50 of C[C@H](Oc1nc(-c2noc3c2CCC[C@@]32CCCc3sc(N)c(C#N)c32)nc2c1CN(c1ncccn1)[C@@]21CCOC1)[C@@H]1CCCN1C noted as 8.30
